# System: MOLT-4 leukemia
# assay-remarks: NCI-60 one-dose screen, 48 h
# assay-context: 10 µM unless noted
About 83,000 compounds went through this panel and 20% of them were active in at least one assay; those are over-represented in the sample as a whole. Active and inactive are the calls of the source. Rule for the calls: active = growth percent below 10; inactive = the rest.
Reply using exactly one outcome from Yes (active), No (inactive)

Field: example entries. Status: answers known.
Cc1c(C(=N)C(C#N)C#N)c(=N)oc2c1ccc1ccccc12; No
COc1ccc2[nH]c(C(=O)OCc3ccc4c(Cl)cc(Cl)c(O)c4n3)cc2c1; Yes
CCCCOc1ccc(/C=C2/SC(N3CCCC3)=NC2=O)cc1; No
COc1cc(NC(=O)SC2=NCCS2)cc(OC)c1; No
COc1cccc(/C=C2\Oc3cc(OCCCN4CCCC4)ccc3C2=O)c1OC; No
NC(=S)N/N=C1\CCCC(C(F)(F)F)C1 (configuration not stated); No
CN1C(=O)N(C)C2C1NN=c1s/c(=C\C=C\c3ccccc3)c(=O)n12 (configuration not stated); No
c1cc(C2=N[C@@H]3c4ccccc4C[C@@H]3O2)nc(C2=N[C@@H]3c4ccccc4C[C@@H]3O2)c1; No

Ask | Please let me know the test result on file for Cc1cc(C)n(-c2nnc3n2N=C(c2ccc(-c4ccccc4)cc2)CS3)n1 .
Reply | No

Ask | Which outcome was entered for the compound COC(=O)c1cccc2c1N(C)c1c(cccc1C(=O)OC)CC2 in this test?
Reply | No

Ask | Lab log entry: O=[N+]([O-])c1cccc(-c2nc3sccn3c2-c2ccnc(NCCCNS(=O)(=O)c3ccc(C(F)(F)F)cc3)n2)c1 — outcome as called in the assay?
Reply | Yes

Ask | What classification did O=[N+]([O-])c1ccc(/C=C/C2(CCl)OCCO2)cc1 end up with in this test?
Reply | No

Ask | Test call, this compound: COc1cccc(-c2cc3c(O)cc(C#N)cc3[nH]2)c1
Reply | No

Ask | Which outcome did this test record for the compound N#Cc1c(Nc2ccccc2)nc2n(c1=O)-c1ccccc1Sc1ccccc1-2 ?
Reply | No

Ask | Write down the call the test reported for this compound. Item: CC(C)(C)n1cc(-c2ccnc(NCCCNS(=O)(=O)c3ccc(F)cc3)c2)c(-c2cccc(O)c2)n1
Reply | No

Ask | What was the test verdict on CCN(CC)CCOC(=O)C(c1ccccc1)(c1ccccc1)C(C)C ?
Reply | No

Ask | Hey, what did the test say about CCC(C)/C(=C\C#N)NCCCN/C(=C/C#N)C(C)CC (configuration not stated) ?
Reply | No

Ask | Would you mind telling me which call this test gave Cn1ccc(Nc2nccc(Oc3ccc(C(=O)Nc4cccc(F)c4)c(Cl)c3)n2)c1 ?
Reply | No

Ask | Look up the recorded call for CCOC(=O)CN1/C(=N/c2sc3c(c2C(=O)OCC)CCN(C(=O)OCC)C3)SC(=O)/C1=C\C(=O)OC in this test.
Reply | No

Ask | # lookup: test call for O=C(Nc1cccc(-n2cc(-c3ccncc3)c(-c3ccc(Cl)c(O)c3)n2)c1)c1ccc(N2CCOCC2)c(C(F)(F)F)c1
Reply | No

Ask | // param item: C=C[C@@H]1C[C@@H]2Cc3c(C)cc(C)cc3N1O2 ; yields the recorded call
Reply | Yes

Ask | Field: outcome | Entry: COc1ccc(C2=CC(c3cc(OC)c(OC)c(OC)c3)NC(=O)N2)cc1OC (configuration not stated)
Reply | No

Ask | // return assay outcome for N/C(=N\S(=O)(=O)c1ccccc1)Nc1nc2ccccc2s1
Reply | No

Ask | Lab log entry: O=[N+]([O-])c1cnc(Sc2ccncn2)s1 — outcome as called in the assay?
Reply | Yes
